METHOD: Comparative cattle PK, IM compared to SC (NorthWest Biopharm)
Type: in vivo
CONDITION: Aberdeen Angus crossbreed and Limousin crossbreed, bovine, blood, 5 mg/kg free base, IM
OUTCOME MEASURE: Tmax (min)
One number for each entry, in min.

Ask: Supply measured Tmax of CC(C)CS(=O)(=O)N[C@H]1CC[C@H](Nc2nc(N)c(C(=O)c3c(F)cc(CN(C)C)cc3F)s2)CC1 in your reply.
Reply: 30

---

METHOD: Pharmacokinetic studies in male Friesian-Holstein cattle, IV and IM (Ridgeway)
Type: in vivo
CONDITION: male, Holstein-Friesian cross, bovine, blood, iv, 2 mg/kg, cattle; IV 2 mg/kg; individual animals 1644, 3646, 7643; read-out: Vdss
OUTCOME MEASURE: Vd (L/kg)
Give bare numbers, in L/kg.

Ask: Return value of Vd for input CC(C)CS(=O)(=O)N[C@H]1CC[C@H](Nc2nc(N)c(C(=O)c3c(F)cc(CN(C)C)cc3F)s2)CC1 , no commentary.
Reply: 2

---

Test system: T. vivax
METHOD: Ex vivo drug sensitivity assay, T. vivax (STIB 719/ILRAD 560)
Assay type: cell-based
CONDITION: Trypanosoma vivax
OUTCOME MEASURE: pEC50
Give bare numbers, as −log10 of the molar value.

Example entries begin here.
CC(C)CS(=O)(=O)N[C@H]1CC[C@H](Nc2nc(N)c(C(=O)c3c(F)cc(CCN(C)C)cc3F)s2)CC1.Cl
9.00
CNCc1cc(F)c(C(=O)c2sc(N[C@H]3CC[C@H](NS(=O)(=O)CC(C)C)CC3)nc2N)c(F)c1.Cl
9.17
CC(C)CS(=O)(=O)N[C@H]1CC[C@H](Nc2nc(N)c(C(=O)c3c(F)cccc3F)s2)CC1
7.02

# ---- query compound ----
Ask: Indicate its recorded pEC50; the compound in question is CC(C)CS(=O)(=O)N[C@H]1CC[C@H](Nc2nc(N)c(C(=O)c3c(F)cc(CN4CCC4)cc3F)s2)CC1.Cl
Reply: 8.16

---

METHOD: Pharmacokinetic studies in male Friesian-Holstein cattle, IV and IM (Ridgeway)
Type: in vivo
CONDITION: male, Holstein-Friesian cross, bovine, blood, iv, 2 mg/kg, cattle; IV 2 mg/kg; n = 3; mean; read-out: Vdss
OUTCOME MEASURE: Vd (L/kg)
One number for each entry, in L/kg.

Ask: Report Vd for CC(C)CS(=O)(=O)N[C@H]1CC[C@H](Nc2nc(N)c(C(=O)c3c(F)cc(CN(C)C)cc3F)s2)CC1
Reply: 3

---

METHOD: Comparative cattle PK, IM compared to SC (NorthWest Biopharm)
Assay type: in vivo
CONDITION: Aberdeen Angus crossbreed and Limousin crossbreed, bovine, blood, 5 mg/kg free base, SC
Procedure: Kolliphor EL, N-methyl pyrrolidone, 2-pyrrolidone and 11% water suitable for injection) […] Comparative cattle PK (Northwestern Biopharm) The pharmacokinetics for compound 2 when dosed as free base in the best tolerated formulation: […] Kolliphor EL, N-methyl pyrrolidone, 2-pyrrolidone and 11% water at 5 mg/kg was assessed, IM compared to SC. Bioanalysis of blood samples was conducted at the University of Dundee. […]
OUTCOME MEASURE: AUC
# do not omit the unit; it follows the number

Ask: Identify measured AUC corresponding to CC(C)CS(=O)(=O)N[C@H]1CC[C@H](Nc2nc(N)c(C(=O)c3c(F)cc(CN(C)C)cc3F)s2)CC1 [Compound 2]
Reply: 967 ng·h/mL

Values were extracted from paper PMC9014415.
